# method_notes: chemical genetic growth profiling, strain panel (AID 1159580);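 note: tested at 20 µM; growth read once vehicle control cultures reached saturation at 30 °C; 1 = growth at the plate median or of vehicle wells; lower values mean less growth of the strain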
# protocol_conditions: S. cerevisiae deletion strains, growth OD, locus YNL067W, strain RPL9B, active compounds read low
The whole screen tested about 5,500 compounds, of which about 2,000 (36%) were called active. Another 18% or so got no clear call; they are omitted. Some of the results follow.
measurement_label: normalized growth

Illustrative cases are given below, each with its answer.
compound | measurement_label | reported_measurement
CCOC(=O)[C@H](CCc1ccccc1)N[C@@H](C)C(=O)N1CCC[C@H]1C(=O)O | normalized growth | 1.01 (inactive)
CCCOc1ccc2nc(NC(=O)OC)[nH]c2c1 | normalized growth | 1.01 (inactive)
COc1ccccc1OCC(O)CO (centres undefined) | normalized growth | 1.02 (inactive)
CC(=O)OCC(=O)[C@@]1(O)[C@H](C)CC2C3CCC4=CC(=O)C=C[C@]4(C)[C@@]3(F)[C@@H](O)C[C@@]21C (some centres undefined) | normalized growth | 1.01 (inactive)

Record summary for `O=C1NC(O)=NC1(c1ccccc1)c1ccccc1` : reported normalized growth = 1.01 (inactive)

For this compound ( `C=C1C[C@]23C[C@@]1(O)CC[C@H]2[C@@]12C=C[C@H](O)[C@@](C)(C(=O)O1)[C@H]2[C@@H]3C(=O)O` ), measured normalized growth is 1 (inactive)

// `NNCc1cccc(O)c1` : normalized growth value = 0.994 (inactive)

Per the records, this compound ( CC(CCc1ccccc1)NCC(O)c1ccc(O)c(C(N)=O)c1 (centres undefined) ) has normalized growth equal to 0.988 (inactive)

According to the records, this compound `CCCN(CCC)S(=O)(=O)c1ccc(C(=O)O)cc1` displays normalized growth of 1.01 (inactive)

---

# method_notes: chemical genetic growth profiling, strain panel (AID 1159580)
# protocol_conditions: S. cerevisiae deletion strains, growth OD, locus YPR167C, strain met16, active compounds read low
Screen size: about 5,500 compounds; about 2,000 (36%) were called active. Another 18% or so got no clear call; they are omitted. This is one part of the list.
measurement_label: normalized growth
Reply with just the number.

Please review the following examples before continuing.
compound | normalized growth
CC(C)CC(NC(=O)OCC1c2ccccc2-c2ccccc21)C(=O)O (configuration not stated) | 1.01
C=C(C)C1(O)OC(=O)C=C1OC (configuration not stated) | 0.992
C[C@H](CCC(=O)O)[C@H]1CCC2C3C(=O)CC4CC(=O)CC[C@]4(C)C3CC(=O)[C@@]21C (some centres not stated) | 1
CC12CCC(=O)C=C1CCC1C2[C@@H](O)CC2(C)C1CC[C@]2(O)C(=O)COP(=O)(O)O (some centres not stated) | 0.998
NNCc1cccc(O)c1 | 0.999

Per the record, CC(CCC(=O)O)[C@H]1CCC2C3CC[C@@H]4CC(=O)CC[C@]4(C)C3C=C[C@@]21C (some centres not stated) has normalized growth of 1.01

Notebook: `CC[N+](C)(C)c1cccc(O)c1` , normalized growth read as 0.979

---

Quick reference for normalized growth among some compounds
# method_notes: chemical genetic growth profiling, strain panel (AID 1159580)
# protocol_conditions: S. cerevisiae deletion strains, growth OD, locus YLR027C, strain aat2, active compounds read low
Out of some 5,500 compounds screened, about 2,000 (36%) were called active. Inconclusive results (about 18%) are left out. This is one part of the list.
Reply: number alone, nothing else.

Some compounds with recorded normalized growth:
compound | reported_measurement
CC(=O)Nc1ccc(S(=O)(=O)Nc2onc(C)c2C)cc1 | 0.973
CC(=O)O[C@@H]1CC2C(C)(C)[C@H](O)C=C[C@]2(C)C2CC[C@]3(C)C(=CC(=O)O[C@H]3c3ccoc3)[C@@]21C (stereo partly specified) | 0.979
CC(C)(C)NC[C@H](O)c1ccc(O)c(CO)c1 | 1.02

Moving on to the next compound.
Short answer for CN1CCN(C(=O)OC2c3nccnc3C(=O)N2c2ccc(Cl)cn2)CC1 (stereo unspecified) : normalized growth was 1

---

# method_notes: chemical genetic growth profiling, strain panel (AID 1159580)
# protocol_conditions: S. cerevisiae deletion strains, growth OD, locus YDR297W, strain sur2, active compounds read low
The whole screen tested about 5,500 compounds, of which about 2,000 (36%) were called active. Roughly 18% stayed inconclusive and do not appear here. This is one part of the list.
measurement_label: normalized growth
Just the number, please, no unit attached.

compound | normalized growth
Oc1cccc(O)c1 | 0.989
Cc1cn[nH]c1 | 1.02
COC(=O)c1c(OC)cc2c(c1C)Oc1c(Cl)c(OC(C)=O)c(Cl)c(C)c1C(=O)O2 | 1
C=C1c2c(Cl)ccc(O)c2C(O)=C2C(=O)[C@]3(O)C(O)=C(C(N)=O)C(=O)[C@@H](N(C)C)[C@@H]3[C@@H](O)[C@H]12 | 0.981
C=C1C[C@]23C[C@@]1(O)CC[C@H]2[C@@]12C=C[C@H](O)[C@@](C)(C(=O)O1)[C@H]2[C@@H]3C(=O)O | 1.02

Recorded normalized growth (compound `CN(C)[C@@H]1C(=O)C(C(N)=O)=C(O)[C@@]2(O)C(=O)C3=C(O)c4c(O)cccc4[C@@](C)(O)[C@H]3[C@H](O)[C@@H]12` ): 1.02

normalized growth reading for `OC[C@H]1O[C@@](CO)(O[C@@H]2O[C@H](CO)[C@@H](O)[C@H](O)[C@H]2O)[C@@H](O[C@@H]2O[C@H](CO)[C@@H](O)[C@H](O)[C@H]2O)[C@@H]1O` : 1.02

Given item `O=C(O)C1=CCCNC1` , the value recorded as its normalized growth is 1

Given item CC(C)=CC1C(C(=O)O)C1(C)C (centres undefined) , the value recorded as its normalized growth is 0.979

---

# method_notes: chemical genetic growth profiling, strain panel (AID 1159580);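 note: tested at 20 µM; growth read once vehicle control cultures reached saturation at 30 °C; 1 = growth at the plate median or of vehicle wells; lower values mean less growth of the strain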
# protocol_conditions: S. cerevisiae deletion strains, growth OD, locus YLR113W, strain HOG1, active compounds read low
The whole screen tested about 5,500 compounds, of which about 2,000 (36%) were called active. Roughly 18% stayed inconclusive and do not appear here. The list shows a part of the results.
normalized growth: recorded values
Returns: the value as a bare number; no unit string appended.

compound | normalized growth
CC(CCC(=O)O)[C@H]1CCC2C3CC[C@@H]4CC(=O)CC[C@]4(C)C3C=C[C@@]21C (stereo not given in full) | 0.882
O=P1(N(CCCl)CCCl)NCCCO1 (stereo not given) | 0.994
CCC(C)[C@H]1O[C@]2(C=C[C@@H]1C)C[C@@H]1C[C@@H](C/C=C(\C)[C@@H](OC3C[C@H](OC)C(O[C@H]4C[C@H](OC)[C@@H](O)[C@H](C)O4)[C@H](C)O3)[C@@H](C)/C=C/C=C3\CO[C@@H]4[C@H](O)C(C)=C[C@@H](C(=O)O1)[C@]34O)O2 (stereo not given in full) | 0.975
C[n+]1ccccc1/C=N/O | 0.999

As a next step, examine the compound that follows.
Value of measured normalized growth for the entry `CCCSc1ccc2nc(NC(=O)OC)[nH]c2c1` : 0.979

---

# method_notes: chemical genetic growth profiling, strain panel (AID 1159580);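 note: tested at 20 µM; growth read once vehicle control cultures reached saturation at 30 °C; 1 = growth at the plate median or of vehicle wells; lower values mean less growth of the strain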
# protocol_conditions: S. cerevisiae deletion strains, growth OD, locus YMR125W, strain sto1
The campaign covered roughly 5,500 compounds. About 2,000 (36%) were called active. About 18% were inconclusive and are not listed. No stated cut-off is given here; in the data, active means normalized growth mostly below about 0.91 (no sharp cut-off); inconclusive means no clear call, values can overlap the other calls; inactive means mostly above about 0.92. The list shows a part of the results.
Bench note: report the call from active, inactive

compound | class_name
CC(C)CCCC(C)[C@H]1CCC2C3CC=C4C[C@@H](O)CC[C@]4(C)C3CC[C@@]21C (stereo not given in full) | inactive
CC(=O)OCC(=O)[C@@]1(O)[C@H](C)CC2C3CCC4=CC(=O)C=C[C@]4(C)[C@@]3(F)[C@@H](O)C[C@@]21C (stereo not given in full) | inactive
CCCc1cc(=O)[nH]c(=S)[nH]1 | inactive

Tell me the recorded outcome of this test for Cc1c(C)c2c(c(C)c1O)CCC(C)(CCCC(C)CCCC(C)CCCC(C)C)O2 (stereo not given) . inactive

Just curious, what result did `CCCN(CCC)S(=O)(=O)c1ccc(C(=O)O)cc1` get here? inactive

Test call, this compound: `CN(C)CCCN1c2ccccc2Sc2ccc(Cl)cc21` active

---

# method_notes: chemical genetic growth profiling, strain panel (AID 1159580);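 note: tested at 20 µM; growth read once vehicle control cultures reached saturation at 30 °C; 1 = growth at the plate median or of vehicle wells; lower values mean less growth of the strain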
# protocol_conditions: S. cerevisiae deletion strains, growth OD, locus YER111C, strain swi4, active compounds read low
Among all 5,500 compounds or so, about 2,000 (36%) were called active. About 18% were inconclusive and are not listed. The list shows a part of the results.
measurement_label: normalized growth
I only need the number, thanks.

molecule | reported_measurement
CCN(CC)CCOC(=O)C1(C2CCCCC2)CCCCC1 | 0.993
CC(CCC(=O)O)[C@H]1CCC2C3C(=O)C[C@@H]4CC(=O)CC[C@]4(C)C3CC(=O)[C@@]21C (stereo not given in full) | 0.998
O=C(OOC(=O)c1ccccc1)c1ccccc1 | 0.972
CC(=O)OCC(=O)[C@@]1(O)[C@H](C)CC2C3CCC4=CC(=O)C=C[C@]4(C)[C@@]3(F)[C@@H](O)C[C@@]21C (stereo not given in full) | 0.986

# input for lookup
# normalized growth (molecule: `Nc1ccc(C(=O)O)cc1` ) is 1.03
